- Assay notes: Cytotoxicity, LDH assay, DU145 cells
- Type: cell-based, human
- Test parameters: human, DU145 prostate carcinoma cells, 10 μg/mL, 24 h, mean ± SD of three; read-out: Cell viability DU145
Quick reference for viability at 24 h, 10 μg/mL among some compounds
Give the quantity in %, number only.

Req: Entry CC(=O)OC1CC2(C)C(C(OC(C)=O)CC3(C)C2C(O)C=C2C4C(C)C(C)(O)CC(OC(C)=O)C4(C)CCC23C)C(C)(C)C1O (centres unmarked) : reported viability at 24 h, 10 μg/mL = ?
Resp: 94.5

Req: Entry CCC(C)C(=O)OC1C=C2C3C(C)C(C)(O)CC(OC(C)=O)C3(C)CCC2(C)C2(C)CC(OC(C)=O)C3C(C)(C)C(O)C(OC(C)=O)CC3(C)C12 (centres unmarked) : reported viability at 24 h, 10 μg/mL = ?
Resp: 83.1

###

- Assay notes: Cytotoxicity, LDH assay, PNT-2 cells
- Type: cell-based, human
- Test parameters: human, PNT-2 prostate epithelial cells, 20 μg/mL, 24 h, mean ± SD of three; read-out: Cell viability PNT-2
Observable: viability at 24 h, 20 μg/mL

CCC(C)C(=O)OC1C=C2C3C(C)C(C)(O)CC(OC(C)=O)C3(C)CCC2(C)C2(C)CC(OC(C)=O)C3C(C)(C)C(O)C(OC(C)=O)CC3(C)C12 (centres unmarked)    94.6%

Req: Entry CC(=O)OC1CC2(C)C(C(OC(C)=O)CC3(C)C2C(O)C=C2C4C(C)C(C)(O)CC(OC(C)=O)C4(C)CCC23C)C(C)(C)C1O (centres unmarked) : reported viability at 24 h, 20 μg/mL = ?
Resp: 96.3%

###

- Assay notes: Cytotoxicity, LDH assay, HT29 cells
- Assay type: cell-based, human
- Test parameters: human, HT29 colon adenocarcinoma cells, 40 μg/mL, 24 h, mean ± SD of three; read-out: Cell viability HT29
- Protocol: Cytotoxic activity was tested on human cancer and normal cells, grouped in three panels, namely: prostate, skin and gastrointestinal. […] Cell viability was determined as it was described previously. […] After 24 h of incubation, viability of the cells was determined using colorimetric lactate dehydrogenase (LDH) assay, in comparison to the controls to which corresponding aliquots of MeOH diluted with culture media were added. […]
Observable: viability at 24 h, 40 μg/mL (%)
Give the quantity in %, number only.

CC(=O)OC1CC2(C)C(C(OC(C)=O)CC3(C)C2C(O)C=C2C4C(C)C(C)(O)CC(OC(C)=O)C4(C)CCC23C)C(C)(C)C1O (centres unmarked) [Compound 2]    74.8

Here's the next entry for you.
Req: Entry CCC(C)C(=O)OC1C=C2C3C(C)C(C)(O)CC(OC(C)=O)C3(C)CCC2(C)C2(C)CC(OC(C)=O)C3C(C)(C)C(O)C(OC(C)=O)CC3(C)C12 (centres unmarked) [Compound 1] : reported viability at 24 h, 40 μg/mL = ?
Resp: 72.5

###

Quick reference for viability at 24 h, 30 μg/mL among some molecules
- Assay notes: Cytotoxicity, LDH assay, HaCaT cells
- Assay type: cell-based, human
- Test parameters: human, HaCaT keratinocytes; 30 μg/mL, 24 h, mean ± SD of three; read-out: Cell viability HaCaT
Give the quantity in %, number only.

CC(=O)OC1CC2(C)C(C(OC(C)=O)CC3(C)C2C(O)C=C2C4C(C)C(C)(O)CC(OC(C)=O)C4(C)CCC23C)C(C)(C)C1O (centres unmarked) [Compound 2]    82.8

Here's the next entry for you.
Req: Entry CCC(C)C(=O)OC1C=C2C3C(C)C(C)(O)CC(OC(C)=O)C3(C)CCC2(C)C2(C)CC(OC(C)=O)C3C(C)(C)C(O)C(OC(C)=O)CC3(C)C12 (centres unmarked) [Compound 1] : reported viability at 24 h, 30 μg/mL = ?
Resp: 81.2
